Overview of recorded largest response in the series, negative = inhibition for various compounds
target: 4'-phosphopantetheinyl transferase ffp (Bacillus subtilis) (UniProt Q9F4F7); assay: qHTS Assay for Inhibitors of Bacillus subtilis Sfp phosphopantetheinyl transferase (PPTase); settings: Biochemical Sfp PPTase activity;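 further: the enzyme is Sfp with the accession as filed and its product quenches rhodamine fluorescence; 0% = enzyme reaction without inhibitor and -100% = no enzyme wells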
Hit rate of the full screen: of about 310,000 compounds, about 11,000 (3.5%) were called active. Another 4% or so got no clear call; they are omitted. Only a selection was taken, and actives are over-represented in it overall.
PARAMETER_MEASURED: largest response in the series, negative = inhibition (%)

[[record]]
compound = "CNC(=S)N/N=C1\\C2CN3CCN(C2)CC1(c1ccccc1)C3"
measurement_units = "%"
experimental_result = -18

[[record]]
compound = "CN1CCCC(=C(c2cccs2)c2cccs2)C1"
measurement_units = "%"
experimental_result = 3.76

[[record]]
compound = "CNC(=O)Nc1ccc(C(O)(C(=O)OC)C(F)(F)F)cc1 (stereo not drawn)"
measurement_units = "%"
experimental_result = 6.69

[[record]]
compound = "CCC(=O)CC(c1ccc([N+](=O)[O-])cc1)c1c(O)c2ccccc2oc1=O (stereo not drawn)"
measurement_units = "%"
experimental_result = 6.92

[[record]]
compound = "CCOP(=S)(OCC)C(O)CCCCCn1c(=O)c(F)cn(C2CCCO2)c1=O (stereo not drawn)"
measurement_units = "%"
experimental_result = 8.97

[[record]]
compound = "COC1CC(OC2CC[C@@]3(C=O)C4CC[C@]5(C)C(C6=CC(=O)OC6)CC[C@@]5(O)C4CC[C@]3(O)C2)OC(C)C1O (stereo partly drawn)"
measurement_units = "%"
experimental_result = 2.96

[[record]]
compound = "Clc1ccc([C@@H]2C[C@H]3CC[C@@H]2N3)cn1"
measurement_units = "%"
experimental_result = 9.37

[[record]]
compound = "c1ccc(N2CC[C@@]3(CCCNC3)C2)nc1"
measurement_units = "%"
experimental_result = -23.5


# credit: PubChem BioAssay AID1490
